Taken from ChEMBL document CHEMBL1137927.

- measured-on: Lysophosphatidic acid receptor 1 (Homo sapiens)
- experiment-description: In vitro ability to antagonize LPA-evoked [35S]GTP-gamma-S binding to lysophosphatidic acid receptor 1 in HEK293T cell lines
pIC50: −log10 of the molar value.
attribute-measured: pIC50

{"columns": ["molecule", "attribute-measured", "measured-value"],
 "data": [
  ["CCCCCCCC/C=C\\CCCCCCCC(=O)NC(COP(=O)(O)O)Cc1ccc(OCc2ccccc2)cc1 (stereo not drawn)", "pIC50", 5.28]
]}

1. CCCCCCCC/C=C\CCCCCCCC(=O)N[C@@H](COP(=O)(O)O)Cc1ccc(OCc2cccc(OC)c2)cc1
2. CCCCCCCC(=O)NC(COP(=O)(O)O)Cc1ccc(OCc2ccccc2)cc1 (stereo not drawn)
3. CCCCCCCC/C=C\CCCCCCCC(=O)N[C@@H](COP(=O)(O)O)Cc1ccc(OCc2ccccn2)cc1
4. CCCCCCCC/C=C\CCCCCCCC(=O)N[C@H](COP(=O)(O)O)Cc1ccc(OCc2ccccn2)cc1
Asked: Order the records by pIC50, with each subsequent value no larger than the one before. Reply: labels, ordered per the request.
Given back: 3, 4, 1, 2
(3: 6.96, 4: 6.22, 1: 5.97, 2: 5.10)

---

- measured-on: Lysophosphatidic acid receptor 3 (Homo sapiens)
- Sequence (Q9UBY5 whole entry): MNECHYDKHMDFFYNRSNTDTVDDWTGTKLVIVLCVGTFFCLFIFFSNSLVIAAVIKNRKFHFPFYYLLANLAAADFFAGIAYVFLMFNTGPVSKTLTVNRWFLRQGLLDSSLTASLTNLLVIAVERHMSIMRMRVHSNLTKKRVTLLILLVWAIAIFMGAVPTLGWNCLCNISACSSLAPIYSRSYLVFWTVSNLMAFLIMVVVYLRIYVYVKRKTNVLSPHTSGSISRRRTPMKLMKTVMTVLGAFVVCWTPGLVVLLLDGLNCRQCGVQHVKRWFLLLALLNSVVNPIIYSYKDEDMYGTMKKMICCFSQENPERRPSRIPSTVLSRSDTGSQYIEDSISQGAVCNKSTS
- experiment-description: In vitro antagonism of LPA-evoked [35S]GTP-gamma-S binding to lysophosphatidic acid receptor 3 in HEK293T cell lines
pIC50: −log10 of the molar value.
attribute-measured: pIC50

{"columns": ["compound", "pIC50"],
 "data": [
  ["CCCCCCCC/C=C\\CCCCCCCC(=O)N[C@H](COP(=O)(O)O)Cc1ccc(Oc2cc3ccccc3[nH]2)cc1", 5.03],
  ["CCCCCCCCCCCCCCCC(=O)NC(COP(=O)(O)O)Cc1ccc(OCc2ccccc2)cc1 (stereo not drawn)", 5.16],
  ["CCCCCCCC/C=C\\CCCCCCCC(=O)N[C@@H](COP(=O)(O)O)Cc1ccc(OCc2ccccn2)cc1", 6.76]
]}

a. CCCCCCCC/C=C\CCCCCCCC(=O)N[C@@H](COP(=O)(O)O)Cc1ccc(OCCC(C)C)cc1
b. CCCCCCCC/C=C\CCCCCCCC(=O)N[C@@H](COP(=O)(O)O)Cc1ccc(OCC2CCCCC2)cc1
Asked: // which entry has the larger pIC50 value, a or b ? # reply format: chosen label
Given back: a
(a: 6.45, b: 5.39)

---

- measured-on: Lysophosphatidic acid receptor 1 (Homo sapiens, UniProt Q92633)
- Sequence (Q92633 whole entry): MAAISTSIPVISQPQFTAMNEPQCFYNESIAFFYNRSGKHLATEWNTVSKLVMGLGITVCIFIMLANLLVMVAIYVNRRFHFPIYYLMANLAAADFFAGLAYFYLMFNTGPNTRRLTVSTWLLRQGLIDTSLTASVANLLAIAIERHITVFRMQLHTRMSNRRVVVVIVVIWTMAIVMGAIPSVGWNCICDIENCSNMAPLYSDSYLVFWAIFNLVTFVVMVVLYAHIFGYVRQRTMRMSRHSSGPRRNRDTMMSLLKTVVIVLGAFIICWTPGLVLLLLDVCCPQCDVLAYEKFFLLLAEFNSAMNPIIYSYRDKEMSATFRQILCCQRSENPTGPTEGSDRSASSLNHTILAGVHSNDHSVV
- experiment-description: In vitro ability to antagonize LPA-evoked [35S]GTP-gamma-S binding to lysophosphatidic acid receptor 1 in HEK293T cell lines
attribute-measured: Ki (nM)

{"columns": ["compound", "unit-of-measure", "measured-value"],
 "data": [
  ["CCCCCCCC/C=C\\CCCCCCCC(=O)N[C@@H](COP(=O)(O)O)Cc1ccc(OCc2ccccn2)cc1", "nM", 18],
  ["CCCCCCCC/C=C\\CCCCCCCC(=O)N[C@@H](COP(=O)(O)O)Cc1ccc(OC2Cc3ccccc3C2)cc1", "nM", 134],
  ["CCCCCCCC/C=C\\CCCCCCCC(=O)N[C@H](COP(=O)(O)O)Cc1ccc(OCc2cccc(OC)c2)cc1", "nM", 642],
  ["CCCCCCCC/C=C\\CCCCCCCC(=O)N[C@H](COP(=O)(O)O)Cc1ccc(OCc2ccccn2)cc1", "nM", 156]
]}

a. CCCCCCCC/C=C\CCCCCCCC(=O)N[C@@H](COP(=O)(O)O)Cc1ccc(Oc2cc3ccccc3[nH]2)cc1
b. CCCCCCCC/C=C\CCCCCCCC(=O)NC(COP(=O)(O)O)Cc1ccc(OCc2ccccc2)cc1 (configuration not stated)
c. CCCCCCCC/C=C\CCCCCCCC(=O)N[C@@H](COP(=O)(O)O)Cc1ccc(OCc2cccc(OC)c2)cc1
Asked: Please produce an ascending ranking of these compounds based on Ki. When ranking, write the labels in the order the request describes.
Given back: c, a, b
(c: 34 nM, a: 73 nM, b: 137 nM)
